Reported log10 of TGI values are given for each entry in this list.
- Tested on: HOP-92 NSCLC
- methodDescription: NCI tumour cell line growth inhibition, 48 h
propertyName: log10 of TGI (log10 of the value in µM)

# givenSmiles, measurementTarget, log10 of TGI
records = [
    ("CNC(=O)N1N[C@H](c2ccccc2)[C@@H]1c1ccccc1", "HOP-92 NSCLC", 1.96),
    ("O=C1/C(=C/c2ccccc2[N+](=O)[O-])COc2ccc(O)cc21", "HOP-92 NSCLC", 1.10),
    ("COCCOCCOCCOCCOC(=O)OC[n+]1ccc(NC(=NCCCCCCOc2ccc(Cl)cc2)NC#N)cc1", "HOP-92 NSCLC", 1.21),
    ("O=[N+]([O-])c1cc(Cc2cc([N+](=O)[O-])c3cccnc3c2O)c(O)c2ncccc12", "HOP-92 NSCLC", 1.57),
    ("Nc1nc(-c2ccc(Cl)cc2)nc2c1sc(=S)n2-c1ccccc1", "HOP-92 NSCLC", 0.80),
    ("O=C1C(Sc2ccc3ccccc3c2)=C(Sc2ccc3ccccc3c2)C(=O)c2ccccc21", "HOP-92 NSCLC", 1.35),
    ("Cc1ccc(-n2c(-c3cc4c([nH]c5ccccc54)c(-c4cccc(O)c4)n3)n[nH]c2=S)cc1", "HOP-92 NSCLC", 1.44),
    ("COC(=O)c1cc([N+](=O)[O-])cc([N+](=O)[O-])c1Cl", "HOP-92 NSCLC", 0.48),
    ("O=C1c2ccccc2C(=O)c2c1cc1c(c2[N+](=O)[O-])OCO1", "HOP-92 NSCLC", 0.57),
    ("C/C(=N\\NC(=S)Nc1ccc([N+](=O)[O-])cc1)c1nc2ncccc2[nH]1", "HOP-92 NSCLC", 1.26),
    ("CCOC(=O)/C=C\\C(C#N)(C#N)N=Cc1ccsc1", "HOP-92 NSCLC", 0.66),
    ("O=C1C=C(C2=C(C3=CC(=O)c4ccccc4C3=O)C(=O)c3ccccc3C2=O)C(=O)c2ccccc21", "HOP-92 NSCLC", 1.26),
    ("c1ccc(-c2csc3ncn4cnnc4c23)cc1", "HOP-92 NSCLC", 1.93),
]

---

- Test system: MDA-MB-231 breast
- methodDescription: NCI tumour cell line growth inhibition, 48 h
Listed here are compounds together with their documented TGI.

# compound, TGI
measured = [
    ("COc1ccc(COc2cc3oc(=O)c4cc(C(C)O)ccc4c3cc2OC)cc1 (centres undefined)", "97.5 µM"),
    ("C[C@H]1C[C@H]2[C@@H]3CCC4=CC(=O)C=C[C@]4(C)C3=CC[C@]2(C)[C@@]1(O)C(=O)CO", "> 100 µM"),
    ("COc1cc(C(=O)O)c(-c2cc3c(cc2C=O)OCO3)c(OC)c1OC", "> 10 µM"),
    ("O=C1C(Sc2ccc3ccccc3c2)=C(Sc2ccc3ccccc3c2)C(=O)c2ccccc21", "18.3 µM"),
    ("COc1ccc(-n2c(C)nc3ccc(NC4OC(CO)C(O)C(O)C4O)cc3c2=O)cc1 (centres undefined)", "> 100 µM"),
    ("O=C1c2ccccc2C(=O)c2c1cc1c(c2[N+](=O)[O-])OCO1", "6.79 µM"),
    ("COC(=O)c1cc([N+](=O)[O-])cc([N+](=O)[O-])c1Cl", "5.79 µM"),
    ("COc1ccc(NC(=O)C(=O)Cc2nc3ccc(C(=O)c4ccccc4)cc3[nH]c2=O)c([N+](=O)[O-])c1", "> 100 µM"),
    ("CC1SC(c2ccc(Cl)cc2)N(CCc2cccs2)C1=O (centres undefined)", "3.28 µM"),
    ("COCCOCCOCCOCCOC(=O)OC[n+]1ccc(NC(=NCCCCCCOc2ccc(Cl)cc2)NC#N)cc1", "23.7 µM"),
    ("Cc1ccc(/C=C2\\Cc3cc(C)c(C)cc3C2=O)c(C(=O)O)c1", "> 100 µM"),
    ("COc1cc(/C=C/C(=O)O[C@H]2[C@H](O[C@@H]3O[C@@H](C)[C@H](O)[C@@H](O)[C@H]3O)[C@@H](O)[C@H](OCCc3ccc(O)c(O)c3)O[C@@H]2COC2OCC(O)(CO)C2O)ccc1O (some centres undefined)", "> 100 µM"),
    ("Nc1ccc(-c2nc3ccc(F)cc3s2)cc1I", "> 100 µM"),
    ("O=C(O)CCCc1ccccc1", "> 1000 µM"),
    ("O=C(c1ccco1)c1c(C(F)(F)F)n([O-])c2cc(F)c(F)cc2[n+]1=O", "0.313 µM"),
    ("CSc1c(C#N)c(S)n(-c2ccc(Cl)cc2)c(=O)c1C#N", "> 100 µM"),
    ("c1n[nH]cc1C12C3C4C5C3C1C5C42 (centres undefined)", "> 100 µM"),
    ("CC(C)CCC[C@@H](C)[C@H]1CC[C@H]2C3=C[C@H](OS(=O)(=O)O)[C@@]4(O)C[C@@H](O)CC[C@]4(C)[C@@]3(O)CC[C@]12C", "> 100 µM"),
    ("N#CCNC(=O)c1ccc(-c2ccnc(Nc3ccc(N4CCOCC4)cc3)n2)cc1", "> 100 µM"),
]

---

- Test system: A549 NSCLC
- methodDescription: NCI tumour cell line growth inhibition, 48 h
Readings of TGI for the listed compounds
propertyName: TGI

# compound, propertyName, endpointResult
records = [
    ("S=C(N/N=C/c1ccccn1)N1CCCCCC1", "TGI", "29.1 µM"),
    ("CCCCCCCCCCCCC(O)C(=O)O (centres undefined)", "TGI", "> 100 µM"),
    ("COCCOCOC(C)(C)[C@H](CCO)O[Si](c1ccccc1)(c1ccccc1)C(C)(C)C", "TGI", "22.1 µM"),
    ("COc1ccc(NC/C=C/C(=C/COC(C)=O)OC(C)=O)cc1", "TGI", "33 µM"),
    ("C=C(CCC=C(C)C)C1CC=C(C)CC1 (centres undefined)", "TGI", "39 µM"),
    ("c1cncc(CSc2ncnc3nc[nH]c23)c1", "TGI", "> 100 µM"),
    ("C=CCN(CC=C)C(=O)[C@H](CC)[C@@H]1CC[C@@H](C)[C@@H]([C@H](C)[C@@H](O)[C@@H](C)C(=O)[C@H](CC)C2O[C@]3(C=C[C@@H](O)[C@]4(CC[C@@](C)([C@H]5CC[C@](O)(CC)[C@H](C)O5)O4)O3)[C@H](C)C[C@@H]2C)O1 (some centres undefined)", "TGI", "> 100 µM"),
    ("CCOC(=O)C(Cc1ccc(N(CCCl)CCCl)cc1)NC(=O)C(Cc1ccccc1)NC(C)=O (centres undefined)", "TGI", "> 1 µM"),
    ("CC1CC(N2CCOCC2)=Nc2ccccc2N1Cc1ccccc1 (centres undefined)", "TGI", "> 100 µM"),
]

---

- System: SW-620 colon
- methodDescription: NCI tumour cell line growth inhibition, 48 h
propertyName: TGI

# molecule, endpointResult
data = [
    ("N#CC1C(N)=NNC12Nc1ccccc1S2 (stereo not given)", "> 100 µM"),
    ("COC(=O)c1ccc(C=C(C#N)C#N)cc1", "45.1 µM"),
    ("C=C[C@]1(O[Si](C)(C)C)C[C@@]2(C(=O)OCC)C(O)C(=O)N3CCc4cc(OC)c(OC)cc4[C@]312 (stereo not given in full)", "> 100 µM"),
    ("Nc1nc(C(=O)O)c(N=Nc2ccccc2)c(=O)[nH]1", "> 100 µM"),
    ("CC(C)(C)c1cc(C(=O)O)c2c(c1)C(=O)OC2(c1ccccc1)c1ccccc1C(=O)O (stereo not given)", "> 100 µM"),
]

---

- Test system: SK-MEL-28 melanoma
- methodDescription: NCI tumour cell line growth inhibition, 48 h

# givenSmiles, GI50
data = [
    ("COc1cc2c(cc1NC(=O)C(Cl)Cl)-c1ccc(NC(=O)C(Cl)Cl)cc1C2", "611 nM"),
    ("S=C(NCc1ccc2c(c1)OCO2)N1CCN(c2ncnc3c2oc2ccccc23)CC1", "> 100000 nM"),
    ("Nc1nc2ccccc2c2c1S(=O)(=O)c1ccc(Cl)cc1C2=O", "2090 nM"),
]

---

- Test system: 786-0 renal
- methodDescription: NCI tumour cell line growth inhibition, 48 h
propertyName: GI50

# compound, propertyName, endpointResult
data = [
    ("CN1CCCC1c1cccnc1.O=C(O)c1ccccc1O.O=C([O-])c1ccccc1[OH2+].O=C([O-])c1ccccc1[OH2+].[Mn+2] (centres undefined)", "GI50", "> 100 µM"),
    ("COc1ccc(-c2[nH]c3ccccc3c2/C=C(\\C#N)S(=O)(=O)c2ccccc2)cc1", "GI50", "0.844 µM"),
    ("O=S(=O)(NCCCNc1cc(-c2cn(-c3ccccc3)nc2-c2cccc(O)c2)ccn1)c1ccc(F)cc1", "GI50", "2.35 µM"),
    ("COc1ccc(/C=N\\Nc2nc(SCC(C)C)nc(-c3ccc(OC)cc3)c2C#N)cc1", "GI50", "1.86 µM"),
    ("COc1ccc(C2CC(c3ccc(N(C)C)cc3)=NN2c2ccc(S(N)(=O)=O)cc2)cc1 (centres undefined)", "GI50", "3.79 µM"),
    ("C=CC[N+]1(CC)CCN=C1CCCCCCCCCCCCCCCCC (centres undefined)", "GI50", "0.788 µM"),
    ("CC(=O)[CH-]C(C)=O.CC(=O)[CH-]C(C)=O.CC(=O)[CH-]C(C)=O.[Ga+3]", "GI50", "> 100 µM"),
    ("COc1ccc(S(=O)(=O)N2CCNCC2)cc1OC", "GI50", "> 100 µM"),
    ("N#C/C(=C\\c1cc2ccc(N3CCC3)cc2oc1=O)C(=O)N(CC(=O)O)CC(=O)O", "GI50", "> 100 µM"),
]

Ref: PubChem BioAssay (NCI)
